Molecular target: human GPR88 (Homo sapiens)
Test: Lance cAMP assay using stable PPLS-HA-GPR88 CHO cells
Format: cell-based
Settings: EC50
quantity: EC50 (nM)
Give bare numbers, in nM.

Use the examples below as a reference point.
CC[C@H](C)[C@H](N)CN(C(=O)[C@@H]1C[C@H]1c1ccccn1)c1ccc(-c2ccc(C(F)(F)F)cc2)cc1 (relative stereo) : 187
CC[C@H](C)[C@H](N)CN(C(=O)[C@@H]1C[C@H]1c1ccccn1)c1ccc(-c2ccc(C#N)cc2)cc1 (relative stereo) : 197
CC[C@H](C)[C@H](N)CN(C(=O)[C@@H]1C[C@H]1c1ccccn1)c1ccc(-c2ccc(CC(C)C)cc2)cc1 (relative stereo) : 271
CCc1ccc(-c2ccc(N(C[C@@H](N)[C@@H](C)CC)C(=O)[C@@H]3C[C@H]3c3ccccn3)cc2)cc1 (relative stereo) : 85
CC[C@H](C)[C@H](N)CN(C(=O)[C@@H]1C[C@H]1c1ccccn1)c1ccc(-c2ccc(C(C)=O)cc2)cc1 (relative stereo) : 351

For each of the compounds below, state EC50.
1. CC[C@H](C)[C@H](N)CN(C(=O)[C@@H]1C[C@H]1c1ccccn1)c1ccc(-c2ccc([N+](=O)[O-])cc2)cc1 (relative stereo)
2. CC[C@H](C)[C@H](N)CN(C(=O)[C@@H]1C[C@H]1c1ccccn1)c1ccc(-c2ccc3c(c2)OCO3)cc1 (relative stereo)
3. CC[C@H](C)[C@H](N)CN(C(=O)[C@@H]1C[C@H]1c1ccccn1)c1ccc(-c2ccc(C(C)(C)C)cc2)cc1 (relative stereo)
4. CC[C@H](C)[C@H](N)CN(C(=O)[C@@H]1C[C@H]1c1ccccn1)c1ccc(-c2ccc(N(C)C)cc2)cc1 (relative stereo)
5. CC[C@H](C)[C@H](N)CN(C(=O)[C@@H]1C[C@H]1c1ccccn1)c1ccc(-c2ccc(OC)c(OC)c2)cc1 (relative stereo)
6. CC[C@H](C)[C@H](N)CN(C(=O)[C@@H]1C[C@H]1c1ccccn1)c1ccc(-c2ccc(-c3ccccc3)cc2)cc1 (relative stereo)
7. CC[C@H](C)[C@H](N)CN(C(=O)[C@@H]1C[C@H]1c1ccccn1)c1ccc(-c2ccc(C(=O)N(C)C)cc2)cc1 (relative stereo)
8. CC[C@H](C)[C@H](N)CN(C(=O)[C@@H]1C[C@H]1c1ccccn1)c1ccc(-c2ccc(N)cc2)cc1 (relative stereo)

Reply |
[274, 204, 515, 294, 917, 289, 3320, 1120]

For each of the compounds below, state EC50.
1. CC[C@H](C)[C@H](N)CN(C(=O)[C@@H]1C[C@H]1c1ccccn1)c1ccc(-c2ccc(OC(F)(F)F)cc2)cc1 (relative stereo)
2. CCCCCCc1ccc(-c2ccc(N(C[C@@H](N)[C@@H](C)CC)C(=O)[C@@H]3C[C@H]3c3ccccn3)cc2)cc1 (relative stereo)
3. CC[C@H](C)[C@H](N)CN(C(=O)[C@@H]1C[C@H]1c1ccccn1)c1ccc(-c2ccc(O)cc2)cc1 (relative stereo)

Reply |
[139, 136, 2860]

* * *

For each record, write down the corresponding EC50.
Target: human GPR88 (Homo sapiens, UniProt Q9GZN0)
Sequence (Q9GZN0 whole entry): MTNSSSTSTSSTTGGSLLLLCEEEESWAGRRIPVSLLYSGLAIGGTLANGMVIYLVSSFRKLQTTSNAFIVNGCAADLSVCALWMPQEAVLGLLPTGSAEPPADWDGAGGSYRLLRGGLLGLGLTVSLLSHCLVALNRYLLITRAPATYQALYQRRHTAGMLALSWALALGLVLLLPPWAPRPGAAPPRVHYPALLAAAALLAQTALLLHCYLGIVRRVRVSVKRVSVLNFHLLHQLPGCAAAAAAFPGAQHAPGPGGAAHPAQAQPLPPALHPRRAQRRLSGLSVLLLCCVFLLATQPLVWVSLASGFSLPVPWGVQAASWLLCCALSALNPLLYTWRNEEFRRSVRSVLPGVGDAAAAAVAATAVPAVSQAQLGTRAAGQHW
Test: Lance cAMP assay using stable PPLS-HA-GPR88 CHO cells
Assay type: cell-based
Conditions: EC50 (nM)
Give bare numbers, in nM.

CCc1ccc(-c2ccc(N(C[C@@H](N)[C@@H](C)CC)C(=O)[C@@H]3C[C@H]3c3ccccn3)cc2)cc1 (relative stereo) : 85
CCOc1ccc(-c2ccc(N(C[C@@H](N)[C@@H](C)CC)C(=O)[C@@H]3C[C@H]3c3ccccn3)cc2)cc1 (relative stereo) : 82
CC[C@H](C)[C@H](N)CN(C(=O)[C@@H]1C[C@H]1c1ccccn1)c1ccc(-c2ccc(C)cc2)cc1 (relative stereo) : 104

Now examine the next entry.
Ask | Answer with the recorded EC50 of CC[C@H](C)[C@H](N)CN(C(=O)[C@@H]1C[C@H]1c1ccccn1)c1ccc(-c2ccc3c(c2)OCO3)cc1 (relative stereo) only.
Reply | 204

* * *

Target: human GPR88 (Homo sapiens, UniProt Q9GZN0)
Assay: Lance cAMP assay using stable PPLS-HA-GPR88 CHO cells
Type: cell-based
Details: EC50
For each record, write down the corresponding EC50.
Answers are plain numbers, in nM.

Use the examples below as a reference point.
CC[C@H](C)[C@H](N)CN(C(=O)[C@@H]1C[C@H]1c1ccccn1)c1ccc(-c2ccc(C)cc2)cc1 (relative stereo) [5a] : 104
CCOC(=O)c1ccc(-c2ccc(N(C[C@@H](N)[C@@H](C)CC)C(=O)[C@@H]3C[C@H]3c3ccccn3)cc2)cc1 (relative stereo) [5u] : 257

Now examine the next entry.
Ask | Answer with the recorded EC50 of CC[C@H](C)[C@H](N)CN(C(=O)[C@@H]1C[C@H]1c1ccccn1)c1ccc(-c2ccc(Cl)cc2)cc1 (relative stereo) [5q] only.
Reply | 213

* * *

For each record, write down the corresponding EC50.
Target: human GPR88 (Homo sapiens, UniProt Q9GZN0)
Assay: Lance cAMP assay using stable PPLS-HA-GPR88 CHO cells
Assay type: cell-based
Conditions: EC50
Answers are plain numbers, in nM.

Use the examples below as a reference point.
CC[C@H](C)[C@H](N)CN(C(=O)[C@@H]1C[C@H]1c1ccccn1)c1ccc(-c2ccc(C3CCCCC3)cc2)cc1 (relative stereo) [5h] : 176
CC[C@H](C)[C@H](N)CN(C(=O)[C@@H]1C[C@H]1c1ccccn1)c1ccc(-c2ccc(C(C)C)cc2)cc1 (relative stereo) [5d] : 260

Now examine the next entry.
Ask | Answer with EC50 of CCOc1ccc(-c2ccc(N(C[C@@H](N)[C@@H](C)CC)C(=O)[C@@H]3C[C@H]3c3ccccn3)cc2)cc1 (relative stereo) [5l] measured for human GPR88 (Homo sapiens, UniProt Q9GZN0).
Reply | 82
